Reported CC50 values for the following molecules.
Test: Cytotoxicity against African green monkey Vero cells assessed as reduction in cell viability by MTT assay
Assay type: cell-based
Details: chlorocebus sabaeus

>  <structure_smiles_string>
Cc1c(C(=O)C(=O)Nc2ccccn2)c(C)n(C)c1C(=O)Nc1ccc(F)c(F)c1

>  <CC50>
> 100 µM

$$$$
>  <structure_smiles_string>
Cn1cc(C(=O)C(=O)N2CC(F)(F)C2)cc1C(=O)Nc1ccc(F)c(F)c1

>  <CC50>
> 100 µM

$$$$
>  <structure_smiles_string>
Cc1c(C(=O)C(=O)N2CCN(C)CC2)c(C)n(C)c1C(=O)Nc1ccc(F)c(F)c1

>  <CC50>
≥ 100 µM

$$$$

---

Assay: Cytotoxicity against human PBMC cells assessed as reduction in cell viability by MTT assay
Assay type: cell-based
assay_metric: CC50

>  <structure_smiles_string>
Cn1cc(C(=O)C(=O)NCC#N)cc1C(=O)Nc1ccc(F)c(F)c1

>  <reported_result>
> 100 µM

$$$$
>  <structure_smiles_string>
Cn1cc(C(=O)C(=O)Nc2ccccc2)cc1C(=O)Nc1ccc(F)c(F)c1

>  <reported_result>
> 100 µM

$$$$
>  <structure_smiles_string>
Cc1c(C(=O)C(=O)NCc2ccccn2)c(C)n(C)c1C(=O)Nc1ccc(F)c(F)c1

>  <reported_result>
> 100 µM

$$$$
